biological target: Tyrosine-protein kinase JAK1 (Homo sapiens, UniProt P23458)
Sequence (P23458 whole entry): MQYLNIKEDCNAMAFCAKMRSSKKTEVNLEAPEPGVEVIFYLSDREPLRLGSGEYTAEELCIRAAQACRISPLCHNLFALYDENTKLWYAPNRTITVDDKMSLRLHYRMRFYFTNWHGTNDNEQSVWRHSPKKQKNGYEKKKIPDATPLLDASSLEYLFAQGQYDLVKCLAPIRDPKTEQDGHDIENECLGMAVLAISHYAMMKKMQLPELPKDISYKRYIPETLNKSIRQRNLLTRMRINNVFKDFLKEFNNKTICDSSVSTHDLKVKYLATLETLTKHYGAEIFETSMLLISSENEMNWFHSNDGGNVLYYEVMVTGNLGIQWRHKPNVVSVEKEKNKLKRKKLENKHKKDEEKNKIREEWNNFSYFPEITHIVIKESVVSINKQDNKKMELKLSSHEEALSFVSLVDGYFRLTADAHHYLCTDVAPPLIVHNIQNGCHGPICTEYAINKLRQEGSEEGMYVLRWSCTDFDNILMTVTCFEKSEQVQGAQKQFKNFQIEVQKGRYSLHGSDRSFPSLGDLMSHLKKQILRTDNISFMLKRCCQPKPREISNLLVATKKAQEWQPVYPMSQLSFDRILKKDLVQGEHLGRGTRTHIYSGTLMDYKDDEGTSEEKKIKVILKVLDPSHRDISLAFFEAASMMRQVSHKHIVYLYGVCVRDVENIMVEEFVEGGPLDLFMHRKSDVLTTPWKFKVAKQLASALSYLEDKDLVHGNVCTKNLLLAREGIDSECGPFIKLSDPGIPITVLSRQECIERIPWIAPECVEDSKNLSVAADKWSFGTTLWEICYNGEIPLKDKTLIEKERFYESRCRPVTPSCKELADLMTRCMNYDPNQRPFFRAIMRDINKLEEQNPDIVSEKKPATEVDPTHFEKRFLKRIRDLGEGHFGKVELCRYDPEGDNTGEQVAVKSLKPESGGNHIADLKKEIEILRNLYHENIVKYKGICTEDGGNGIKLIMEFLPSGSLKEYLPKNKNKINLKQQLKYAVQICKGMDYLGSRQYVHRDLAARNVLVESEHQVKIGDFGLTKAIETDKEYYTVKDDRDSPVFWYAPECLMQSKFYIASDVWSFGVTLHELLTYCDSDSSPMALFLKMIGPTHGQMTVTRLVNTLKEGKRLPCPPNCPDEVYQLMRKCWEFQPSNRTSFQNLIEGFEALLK
observable: IC50 (µM)

smilesStructure	assayedTarget	readoutUnits	value
Cc1cc(Nc2ncc(Cl)c(Nc3ccccc3S(=O)(=O)C(C)C)n2)c(OC(C)C)cc1C1CCNCC1	Tyrosine-protein kinase JAK1 (Homo sapiens, UniProt P23458)	µM	3.73

---

assay: AUC in BALB/c mouse at 20 mg/kg, po; format: ADME, organism-based; set-up: dose 20 mg/kg, route oral; conditions: plasma

compound	readoutUnits	AUC
Cc1cc(Nc2ncc(Cl)c(Nc3ccccc3S(=O)(=O)C(C)C)n2)c(OC(C)C)cc1C1CCNCC1 [CERITINIB]	µM·h	12.3

---

assay: AUC in Sprague-Dawley rat at 10 mg/kg, po; assay type: ADME, organism-based; design: dose 10 mg/kg, route oral; conditions: plasma
observable: AUC (µM·h)

compound	value
Cc1cc(Nc2ncc(Cl)c(Nc3ccccc3S(=O)(=O)C(C)C)n2)c(OC(C)C)cc1C1CCNCC1 [CERITINIB]	6.09

---

test: Tmax in cynomolgus monkey at 60 mg/kg, po; format: ADME, organism-based, Macaca fascicularis; set-up: dose 60 mg/kg, route oral; conditions: in vivo

smilesStructure	readoutUnits	Tmax
Cc1cc(Nc2ncc(Cl)c(Nc3ccccc3S(=O)(=O)C(C)C)n2)c(OC(C)C)cc1C1CCNCC1	h	13

---

experiment: Volume of distribution at steady state in cynomolgus monkey at 5 mg/kg, iv; assay type: ADME, organism-based, Macaca fascicularis; design: dose 5 mg/kg, route intravenous; details: in vivo, read-out: Vdss

compound	Vd [L/kg]
Cc1cc(Nc2ncc(Cl)c(Nc3ccccc3S(=O)(=O)C(C)C)n2)c(OC(C)C)cc1C1CCNCC1 [CERITINIB]	15

---

Entries annotated with measured microsomal CLint
test: Intrinsic clearance in mouse liver microsomes; assay type: ADME, Microsome; conditions: read-out: CLH
observable: microsomal CLint (µL/min/mg)

smilesStructure	value
Cc1cc(Nc2ncc(Cl)c(Nc3ccccc3S(=O)(=O)C(C)C)n2)c(OC(C)C)cc1C1CCN(CCO)CC1	15
Cc1cc(Nc2ncc(Cl)c(Nc3ccccc3S(=O)(=O)C(C)C)n2)c(OC(C)C)cc1C1CCN(C)CC1	15
Cc1cc(Nc2ncc(Cl)c(Nc3ccccc3S(=O)(=O)C(C)C)n2)c(OC2CCC2)cc1C1CCNCC1	15
Cc1cc(Nc2ncc(Cl)c(Nc3ccccc3S(=O)(=O)C(C)C)n2)c(OC(C)C)cc1C1CCNCC1	15
Cc1cc(Nc2ncc(Cl)c(Nc3ccccc3S(=O)(=O)C(C)C)n2)c(OC(C)C)cc1C1CCN(C(=O)CN(C)C)CC1	45
Cc1cc(Nc2ncc(C)c(Nc3ccccc3S(=O)(=O)C(C)C)n2)c(OC(C)C)cc1C1CCN(C)CC1	15
CC(C)Oc1nc(C2CCNCC2)ncc1Nc1ncc(Cl)c(Nc2ccccc2S(=O)(=O)C(C)C)n1	21
CC(C)Oc1cc(C2CCNCC2)ccc1Nc1ncc(Cl)c(Nc2ccccc2S(=O)(=O)C(C)C)n1	15

---

biological target: Hepatocyte growth factor receptor (Homo sapiens)
observable: IC50 (µM)

smilesStructure	observable	value
Cc1cc(Nc2ncc(Cl)c(Nc3ccccc3S(=O)(=O)C(C)C)n2)c(OC(C)C)cc1C1CCNCC1	IC50	3.17

---

assay: AUC in cynomolgus monkey at 5 mg/kg, iv; assay type: ADME, organism-based, Macaca fascicularis; design: dose 5 mg/kg, route intravenous; conditions: plasma

smilesStructure	AUC [µM·h]
Cc1cc(Nc2ncc(Cl)c(Nc3ccccc3S(=O)(=O)C(C)C)n2)c(OC(C)C)cc1C1CCNCC1	11.3

---

test: Cmax in cynomolgus monkey at 60 mg/kg, po; type: ADME, organism-based, Macaca fascicularis; parameters: dose 60 mg/kg, route oral; conditions: in vivo

smilesStructure	readoutUnits	Cmax
Cc1cc(Nc2ncc(Cl)c(Nc3ccccc3S(=O)(=O)C(C)C)n2)c(OC(C)C)cc1C1CCNCC1	nM	1700

---

test: Cmax in Beagle dog at 20 mg/kg, po; format: ADME, organism-based, Canis lupus familiaris; set-up: dose 20 mg/kg, route oral; details: in vivo
observable: Cmax

compound	value
Cc1cc(Nc2ncc(Cl)c(Nc3ccccc3S(=O)(=O)C(C)C)n2)c(OC(C)C)cc1C1CCNCC1 [CERITINIB]	1900 nM

---

molecular target: Mast/stem cell growth factor receptor Kit (Homo sapiens); experiment: Inhibition of cKIT (unknown origin) after 60 mins
Sequence (P10721 whole entry): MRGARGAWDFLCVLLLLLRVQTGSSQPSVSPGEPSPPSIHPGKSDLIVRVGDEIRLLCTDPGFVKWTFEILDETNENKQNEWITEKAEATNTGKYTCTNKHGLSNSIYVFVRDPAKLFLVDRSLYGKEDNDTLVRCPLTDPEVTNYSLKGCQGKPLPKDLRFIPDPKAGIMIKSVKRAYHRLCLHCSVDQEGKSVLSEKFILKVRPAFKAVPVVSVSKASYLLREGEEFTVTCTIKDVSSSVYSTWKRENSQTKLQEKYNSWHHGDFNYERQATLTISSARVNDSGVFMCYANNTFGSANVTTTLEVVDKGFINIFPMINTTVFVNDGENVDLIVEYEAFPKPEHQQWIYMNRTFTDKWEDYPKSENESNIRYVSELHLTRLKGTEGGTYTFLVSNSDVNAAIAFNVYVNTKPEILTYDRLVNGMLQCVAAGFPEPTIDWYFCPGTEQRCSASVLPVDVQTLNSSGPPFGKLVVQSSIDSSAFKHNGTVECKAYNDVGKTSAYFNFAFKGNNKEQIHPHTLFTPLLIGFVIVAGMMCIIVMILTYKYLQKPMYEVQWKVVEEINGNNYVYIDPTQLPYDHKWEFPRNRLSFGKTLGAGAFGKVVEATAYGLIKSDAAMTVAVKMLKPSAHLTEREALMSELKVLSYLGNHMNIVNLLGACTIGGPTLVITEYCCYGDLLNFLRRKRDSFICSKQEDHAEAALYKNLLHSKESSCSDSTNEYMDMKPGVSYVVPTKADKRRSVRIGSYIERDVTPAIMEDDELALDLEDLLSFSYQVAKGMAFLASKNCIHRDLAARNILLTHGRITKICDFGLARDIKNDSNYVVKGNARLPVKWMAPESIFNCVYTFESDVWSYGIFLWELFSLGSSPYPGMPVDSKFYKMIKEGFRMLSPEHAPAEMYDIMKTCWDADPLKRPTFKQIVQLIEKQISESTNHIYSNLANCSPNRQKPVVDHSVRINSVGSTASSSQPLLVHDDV

molecule	IC50
Cc1cc(Nc2ncc(Cl)c(Nc3ccccc3S(=O)(=O)C(C)C)n2)c(OC(C)C)cc1C1CCNCC1 [CERITINIB]	1280 nM

---

experiment: Solubility of the compound […] at pH 6.8; type: physicochemical
Entries annotated with measured solubility

smilesStructure	operatorSymbol	solubility / µM
CC(C)Oc1cc(C2CCNCC2)ccc1Nc1ncc(Cl)c(Nc2ccccc2S(=O)(=O)C(C)C)n1	=	4
Cc1cc(Nc2ncc(Cl)c(Nc3ccccc3S(=O)(=O)C(C)C)n2)c(OC(C)C)cc1C1CCN(C)CC1	=	64
CC(C)Oc1nc(C2CCNCC2)ncc1Nc1ncc(Cl)c(Nc2ccccc2S(=O)(=O)C(C)C)n1	=	138
Cc1cc(Nc2ncc(Cl)c(Nc3ccccc3S(=O)(=O)C(C)C)n2)c(OC2CCC2)cc1C1CCNCC1	<	2

---

molecular target: Receptor-type tyrosine-protein kinase FLT3 (Homo sapiens); test: Inhibition of TEL-fused FLT3 (unknown origin) by cell-based assay

smilesStructure	assayedTarget	readoutUnits	IC50
Cc1cc(Nc2ncc(Cl)c(Nc3ccccc3S(=O)(=O)C(C)C)n2)c(OC(C)C)cc1C1CCNCC1	Receptor-type tyrosine-protein kinase FLT3 (Homo sapiens)	µM	3.14

---

molecular target: Tyrosine-protein kinase Lck (Homo sapiens); assay: Inhibition of LCK (unknown origin) after 60 mins
Sequence (P06239 whole entry): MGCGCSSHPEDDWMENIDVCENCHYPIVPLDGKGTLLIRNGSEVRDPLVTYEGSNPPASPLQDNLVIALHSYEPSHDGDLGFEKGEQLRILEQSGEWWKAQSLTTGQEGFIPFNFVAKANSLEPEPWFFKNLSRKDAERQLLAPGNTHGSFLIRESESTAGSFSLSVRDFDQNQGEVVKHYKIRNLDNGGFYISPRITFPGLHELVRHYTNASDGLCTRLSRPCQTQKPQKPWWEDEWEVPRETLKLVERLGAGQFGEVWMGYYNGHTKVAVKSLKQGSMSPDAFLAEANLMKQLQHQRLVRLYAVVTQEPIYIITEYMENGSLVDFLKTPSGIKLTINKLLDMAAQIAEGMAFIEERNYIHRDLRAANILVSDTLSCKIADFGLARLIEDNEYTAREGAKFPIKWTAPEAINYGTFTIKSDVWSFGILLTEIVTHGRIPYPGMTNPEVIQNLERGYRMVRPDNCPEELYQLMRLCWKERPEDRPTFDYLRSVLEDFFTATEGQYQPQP

smilesStructure	IC50, nM
Cc1cc(Nc2ncc(Cl)c(Nc3ccccc3S(=O)(=O)C(C)C)n2)c(OC(C)C)cc1C1CCNCC1	560

---

target: Hepatocyte growth factor receptor (Homo sapiens, UniProt P08581); assay: Inhibition of TEL-fused MET (unknown origin) by cell-based assay
Sequence (P08581 25-1390 limits assumed): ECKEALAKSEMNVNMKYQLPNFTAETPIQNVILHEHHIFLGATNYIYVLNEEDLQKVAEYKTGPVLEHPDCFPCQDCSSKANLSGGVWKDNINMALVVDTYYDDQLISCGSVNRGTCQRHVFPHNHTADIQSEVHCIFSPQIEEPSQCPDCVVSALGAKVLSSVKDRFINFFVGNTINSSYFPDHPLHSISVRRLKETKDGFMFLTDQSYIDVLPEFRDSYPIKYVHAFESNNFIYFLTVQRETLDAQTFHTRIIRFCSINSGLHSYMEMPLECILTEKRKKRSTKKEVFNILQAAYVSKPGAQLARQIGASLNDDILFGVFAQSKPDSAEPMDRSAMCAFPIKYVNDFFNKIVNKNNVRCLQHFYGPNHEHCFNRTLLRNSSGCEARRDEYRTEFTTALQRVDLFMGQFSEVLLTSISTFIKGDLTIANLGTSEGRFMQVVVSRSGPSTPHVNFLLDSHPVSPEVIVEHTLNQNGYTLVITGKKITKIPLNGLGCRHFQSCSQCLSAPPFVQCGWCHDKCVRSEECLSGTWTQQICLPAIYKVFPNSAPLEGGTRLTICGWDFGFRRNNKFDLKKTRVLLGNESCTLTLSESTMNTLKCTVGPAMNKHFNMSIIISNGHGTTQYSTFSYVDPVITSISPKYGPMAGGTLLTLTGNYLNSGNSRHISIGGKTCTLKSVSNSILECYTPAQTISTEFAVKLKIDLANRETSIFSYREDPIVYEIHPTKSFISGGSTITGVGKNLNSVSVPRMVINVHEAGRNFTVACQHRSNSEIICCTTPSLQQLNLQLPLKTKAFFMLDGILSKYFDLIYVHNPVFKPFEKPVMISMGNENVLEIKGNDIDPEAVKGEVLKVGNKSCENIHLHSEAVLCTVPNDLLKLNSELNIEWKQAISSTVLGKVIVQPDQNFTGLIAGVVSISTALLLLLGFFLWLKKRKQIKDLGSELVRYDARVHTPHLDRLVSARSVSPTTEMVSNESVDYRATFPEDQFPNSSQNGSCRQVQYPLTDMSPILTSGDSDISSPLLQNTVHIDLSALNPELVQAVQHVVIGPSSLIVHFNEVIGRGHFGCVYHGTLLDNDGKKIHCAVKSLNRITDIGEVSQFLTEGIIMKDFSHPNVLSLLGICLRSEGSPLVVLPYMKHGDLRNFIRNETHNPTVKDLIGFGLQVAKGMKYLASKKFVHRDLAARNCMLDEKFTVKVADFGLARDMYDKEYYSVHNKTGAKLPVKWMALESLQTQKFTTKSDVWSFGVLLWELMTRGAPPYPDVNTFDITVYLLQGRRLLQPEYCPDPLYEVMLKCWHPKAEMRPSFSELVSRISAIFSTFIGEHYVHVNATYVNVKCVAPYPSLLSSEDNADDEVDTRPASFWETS
pIC50: −log10 of the molar value.
observable: pIC50

smilesStructure	value
Cc1cc(Nc2ncc(Cl)c(Nc3ccccc3S(=O)(=O)C(C)C)n2)c(OC(C)C)cc1C1CCNCC1	5.87

---

test: Solubility of the compound […] at pH 6.8; type: physicochemical
observable: solubility (µM)

smilesStructure	value
Cc1cc(Nc2ncc(Cl)c(Nc3ccccc3S(=O)(=O)C(C)C)n2)c(OC(C)C)cc1C1CCNCC1	24
Cc1cc(Nc2ncc(Cl)c(Nc3ccccc3S(=O)(=O)C(C)C)n2)c(OC(C)C)cc1C1CCN(C(=O)CN(C)C)CC1	4
Cc1cc(Nc2ncc(Cl)c(Nc3ccccc3S(=O)(=O)C(C)C)n2)c(OC(C)C)cc1C1CCN(CCO)CC1	36
Cc1cc(Nc2ncc(C)c(Nc3ccccc3S(=O)(=O)C(C)C)n2)c(OC(C)C)cc1C1CCN(C)CC1	144

---

biological target: Cytochrome P450 3A4 (Homo sapiens, UniProt P08684); experiment: Inhibition of CYP3A4 in human liver microsomes using midazolam as substrate by LC-MS/MS analysis; format: ADME, Microsome
Sequence (P08684 whole entry): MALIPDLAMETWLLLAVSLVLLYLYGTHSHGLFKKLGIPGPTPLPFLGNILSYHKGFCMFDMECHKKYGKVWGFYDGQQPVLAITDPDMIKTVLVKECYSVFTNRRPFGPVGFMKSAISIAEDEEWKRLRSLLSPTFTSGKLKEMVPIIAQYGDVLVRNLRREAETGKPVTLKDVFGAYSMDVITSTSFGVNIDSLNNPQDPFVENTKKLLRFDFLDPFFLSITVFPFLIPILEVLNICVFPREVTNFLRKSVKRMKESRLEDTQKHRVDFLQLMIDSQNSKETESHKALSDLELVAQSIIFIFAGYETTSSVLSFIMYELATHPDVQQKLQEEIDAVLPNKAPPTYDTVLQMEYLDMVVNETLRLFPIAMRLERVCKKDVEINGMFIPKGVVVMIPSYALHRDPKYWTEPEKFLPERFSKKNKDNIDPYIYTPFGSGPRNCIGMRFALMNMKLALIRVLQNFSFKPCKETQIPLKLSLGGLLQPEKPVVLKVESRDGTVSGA
Param label: returns Met when INH < 2 µM, returns Not met otherwise, including exact equality.

smilesStructure	assayedTarget	categoryLabel
Cc1cc(Nc2ncc(Cl)c(Nc3ccccc3S(=O)(=O)C(C)C)n2)c(OC2CCC2)cc1C1CCNCC1	Cytochrome P450 3A4 (Homo sapiens, UniProt P08684)	Not met
CC(C)Oc1cc(C2CCNCC2)ccc1Nc1ncc(Cl)c(Nc2ccccc2S(=O)(=O)C(C)C)n1	Cytochrome P450 3A4 (Homo sapiens, UniProt P08684)	Met
Cc1cc(Nc2ncc(Cl)c(Nc3ccccc3S(=O)(=O)C(C)C)n2)c(OC(C)C)cc1C1CCN(CCO)CC1	Cytochrome P450 3A4 (Homo sapiens, UniProt P08684)	Not met
Cc1cc(Nc2ncc(C)c(Nc3ccccc3S(=O)(=O)C(C)C)n2)c(OC(C)C)cc1C1CCN(C)CC1	Cytochrome P450 3A4 (Homo sapiens, UniProt P08684)	Not met
Cc1cc(Nc2ncc(Cl)c(Nc3ccccc3S(=O)(=O)C(C)C)n2)c(OC(C)C)cc1C1CCN(C)CC1	Cytochrome P450 3A4 (Homo sapiens, UniProt P08684)	Not met
CC(C)Oc1nc(C2CCNCC2)ncc1Nc1ncc(Cl)c(Nc2ccccc2S(=O)(=O)C(C)C)n1	Cytochrome P450 3A4 (Homo sapiens, UniProt P08684)	Not met
Cc1cc(Nc2ncc(Cl)c(Nc3ccccc3S(=O)(=O)C(C)C)n2)c(OC(C)C)cc1C1CCNCC1	Cytochrome P450 3A4 (Homo sapiens, UniProt P08684)	Met
Cc1cc(Nc2ncc(Cl)c(Nc3ccccc3S(=O)(=O)C(C)C)n2)c(OC(C)C)cc1C1CCN(C(=O)CN(C)C)CC1	Cytochrome P450 3A4 (Homo sapiens, UniProt P08684)	Met
